Measured growth inhibition values are reported for all entries that follow.
assay: NCI Yeast Anticancer Drug Screen. Data for the rad50 strain (AID 155);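 also: 0% = growth of vehicle-only cultures of the same strain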; conditions: S. cerevisiae rad50 strain growth inhibition; at 50.0 µM; stronger effect = higher value
About 79,000 compounds went through this panel and 15% of them were active in at least one assay; those are over-represented in the sample as a whole.
readout: growth inhibition (%)

> print(dat)
                                    compound            readout  value.reported
 1         C=CC(C)C(C)C (stereo unspecified)  growth inhibition            3.15
 2            O=Cc1ccc(/C=C2\NC(=O)NC2=O)cc1  growth inhibition           -6.25
 3  CC(C)=CCC1=C(OC2OC(CO)C(O)C(O)C2O)C(=O)c2ccccc2C1=O (stereo unspecified)  growth inhibition            15.2
 4  Cc1ccc2c(c1)C(O)(CC(=O)c1ccccc1)C(=O)N2 (stereo unspecified)  growth inhibition            35.4
 5  Cc1c([N+](=O)[O-])cc2c(c1[N+](=O)[O-])C(C(C)C)CCC2(C)C (stereo unspecified)  growth inhibition            -1.5
 6      O=c1[nH]nc(Cc2ccccc2)n1/N=C\c1ccccc1  growth inhibition           -38.6
 7           C=C(C)CN(CC(=C)C)c1nc(N)nc(N)n1  growth inhibition           -35.2
 8  O=c1nc(NC2CC2)ccn1C1OC(CO)C(O)C1O (stereo unspecified)  growth inhibition           -3.75
 9                        COc1cccc2cc[nH]c12  growth inhibition             0.2
10                         Cc1cc(C)c(CC#N)s1  growth inhibition           -25.2
11  Cc1cc2nc(N3CCCCC3)n(C3OC(CO)C(O)C3O)c2cc1C (stereo unspecified)  growth inhibition              11
12                      CC1=C(C)C(=O)C=CC1=O  growth inhibition            19.9
13   CCOC(=O)/C(=C/c1ccc(C(=O)OC)cc1)N(CC)CC  growth inhibition           -26.5
14        N#CC1CNCCC1=N (stereo unspecified)  growth inhibition           -5.75
15                      c1ccc(CNc2cnccn2)cc1  growth inhibition           -20.5
16  CCOC(=O)c1cn(C)c2c1C(=O)C(C(=O)OCC)CC(=O)N2 (stereo unspecified)  growth inhibition           -4.55
17                            O=C1C=CC(=O)C1  growth inhibition              16
18                   NC(=O)Cc1[nH]ccc1C(=O)O  growth inhibition             9.4
19        O=C1C=C2CCC[C@H]3OC(=O)C[C@@]23CC1  growth inhibition            12.4
20                                 C=CC(=N)N  growth inhibition            12.3
21  COC(=O)N1N=C(c2ccccc2)C(C(=O)OC)(C(=O)OC)c2ccccc21  growth inhibition            45.7
22  O=C(c1ccc(OC(=O)c2ccccc2O)cc1)c1ccc(OC(=O)c2ccccc2O)cc1  growth inhibition            27.6
23         Cc1ccsc1C(=O)c1ccccc1[N+](=O)[O-]  growth inhibition           -3.65
24  Cc1nn(C(=O)c2ccc(Cl)cc2)c2c1C(c1ccc(Cl)cc1)SC(N)=N2 (stereo unspecified)  growth inhibition            9.95
25  CC(C)(C)COc1ccc2c(c1)C1=NC2=NC2=NC(=NC3=NC(=NC4=NC(=N1)c1ccc(OCC(C)(C)C)cc14)c1ccc(OCC(C)(C)C)cc13)c1ccc(OCC(C)(C)C)cc12  growth inhibition            12.8
26  C=CCC(O)c1ccc2c(c1)OCO2 (stereo unspecified)  growth inhibition              -1
